- TGT: T1, hu-MCSP(D3 domain)-avi-his (human, UniProt Q6UVK1 1582-2224)
- T1 construct: Recombinant D3 domain with avi and his tags; also called human MCSP(D3 domain)-avi-his; Human MCSP D3
- T1 sequence: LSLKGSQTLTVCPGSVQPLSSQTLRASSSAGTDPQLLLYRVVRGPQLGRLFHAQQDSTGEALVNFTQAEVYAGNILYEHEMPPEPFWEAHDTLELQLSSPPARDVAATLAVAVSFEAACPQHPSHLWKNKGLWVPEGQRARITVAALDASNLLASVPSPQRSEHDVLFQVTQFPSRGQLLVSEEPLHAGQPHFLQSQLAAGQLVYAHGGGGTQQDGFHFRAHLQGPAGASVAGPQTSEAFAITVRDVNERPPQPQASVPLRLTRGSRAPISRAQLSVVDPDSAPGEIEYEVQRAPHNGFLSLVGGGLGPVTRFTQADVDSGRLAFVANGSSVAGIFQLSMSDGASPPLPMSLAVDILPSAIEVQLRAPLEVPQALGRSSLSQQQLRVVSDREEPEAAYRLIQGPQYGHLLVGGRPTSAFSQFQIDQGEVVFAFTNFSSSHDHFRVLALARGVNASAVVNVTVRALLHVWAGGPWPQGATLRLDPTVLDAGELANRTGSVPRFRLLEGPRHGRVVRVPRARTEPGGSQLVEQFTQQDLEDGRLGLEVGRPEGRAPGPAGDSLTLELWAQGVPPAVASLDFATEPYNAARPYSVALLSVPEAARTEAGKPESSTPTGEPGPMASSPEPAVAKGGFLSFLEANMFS
- ASSAY OVERVIEW: SPR Biacore T200, 25 C; affinity: IgG captured via anti-human Fc, MCSP D3 as analyte
Listing: Kd of selected binders
Value expressed in nM; do not type the unit.

Guide cases for Kd, answers given:
>  <BINDER>
Parental M4-3/ML2 IgG (antibody, V domains shown, Human IgG1 format, from mammalian production; also called M4-3 ML2 (parental); anti-MCSP antibody M4-3/ML2) VH: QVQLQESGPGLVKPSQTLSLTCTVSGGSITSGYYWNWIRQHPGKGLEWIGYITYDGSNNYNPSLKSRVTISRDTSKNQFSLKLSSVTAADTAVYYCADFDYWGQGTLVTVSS VL: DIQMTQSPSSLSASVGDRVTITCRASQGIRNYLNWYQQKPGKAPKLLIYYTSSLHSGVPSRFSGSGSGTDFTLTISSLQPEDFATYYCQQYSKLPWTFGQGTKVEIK

>  <Kd / nM>
8.6

$$$$
>  <BINDER>
M4-3(C1)/ML2(E10) IgG (antibody, V domains shown, Human IgG1) VH: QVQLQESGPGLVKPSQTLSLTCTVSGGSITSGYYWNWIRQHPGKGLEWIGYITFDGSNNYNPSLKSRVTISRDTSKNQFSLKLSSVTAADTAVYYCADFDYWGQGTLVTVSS VL: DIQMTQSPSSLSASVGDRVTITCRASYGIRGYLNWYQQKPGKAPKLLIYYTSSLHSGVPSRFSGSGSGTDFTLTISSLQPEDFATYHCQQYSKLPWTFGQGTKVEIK

>  <Kd / nM>
4.6

$$$$
>  <BINDER>
M4-3(C1)/ML2(G3) IgG (antibody, V domains shown, Human IgG1) VH: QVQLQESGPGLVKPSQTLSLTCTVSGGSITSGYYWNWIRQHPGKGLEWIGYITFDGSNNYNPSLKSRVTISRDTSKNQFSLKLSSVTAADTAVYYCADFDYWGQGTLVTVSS VL: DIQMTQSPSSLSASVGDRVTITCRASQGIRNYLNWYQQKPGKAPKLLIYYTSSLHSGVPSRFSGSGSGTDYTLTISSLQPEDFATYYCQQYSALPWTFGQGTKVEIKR

>  <Kd / nM>
1.8

$$$$

Proceeding to the next binder to report its Kd.
The binder listed as M4-3(C1)/ML2(C5) IgG (antibody, V domains shown, Human IgG1) VH: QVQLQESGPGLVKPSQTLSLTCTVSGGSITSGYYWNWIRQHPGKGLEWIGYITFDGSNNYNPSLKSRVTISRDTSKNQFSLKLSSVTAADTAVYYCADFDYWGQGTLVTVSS VL: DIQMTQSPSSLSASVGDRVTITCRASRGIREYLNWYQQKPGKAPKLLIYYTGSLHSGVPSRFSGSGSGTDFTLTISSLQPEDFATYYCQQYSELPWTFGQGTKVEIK shows Kd equal to 1.8

Taken from patent US20140242080A1.
